Reference for the values: PubChem BioAssay (Tox21)

experiment: Nuclear factor erythroid 2-related factor 2/antioxidant responsive element (Nrf2/ARE) small molecule agonists: luciferase reporter gene qHTS assay in human keratinocytes (AID 1919969); conditions: KeratinoSens HaCaT ARE-luciferase, luminescence, 24 h; series mostly up to 92.4 µM; note: nearly all actives have a fitted effect of over 35% in size
Results filed as inconclusive are left out. The source made the active and inactive calls. Calls come from the whole dose curve.

SMILES REPRESENTATION: Cc1ccc(C(=O)O)cc1
outcome: inactive

SMILES REPRESENTATION: CCCc1ccccc1
outcome: inactive

SMILES REPRESENTATION: CCCCCCOC(=O)c1ccccc1O
outcome: inactive
